- targetOrTestSystem: L-lactate dehydrogenase (Plasmodium falciparum (isolate CDC / Honduras)) (UniProt Q27743)
- Sequence (Q27743 whole entry, looked up): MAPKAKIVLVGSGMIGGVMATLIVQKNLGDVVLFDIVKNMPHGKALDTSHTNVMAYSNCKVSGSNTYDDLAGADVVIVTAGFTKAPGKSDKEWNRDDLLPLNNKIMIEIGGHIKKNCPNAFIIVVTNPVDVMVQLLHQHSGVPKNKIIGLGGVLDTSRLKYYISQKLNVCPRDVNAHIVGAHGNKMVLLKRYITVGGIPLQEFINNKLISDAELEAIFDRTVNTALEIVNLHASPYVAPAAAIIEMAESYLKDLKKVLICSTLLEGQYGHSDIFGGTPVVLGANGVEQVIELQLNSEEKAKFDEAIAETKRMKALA
- assayNotes: PfLDH activity inhibition – cell lysate, 3D7 strain, counter-screen for P. falciparum growth inhibition project (AID 2304);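 further: 0% = vehicle and 100% = reference inhibitor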
- conditionDescription: P. falciparum 3D7 crude extract, LDH APAD/NBT absorbance; at 2 µM; active compounds read high
observedProperty: inhibition (%)
Give bare numbers, in %.

[[record]]
compound = "O=C(Nc1ccc(OC2CCN(Cc3ccsc3)C2)c(Cl)c1)c1cccs1 (stereo not given)"
val = -5

[[record]]
compound = "CC(CN1CCN(C)CC1)C(=O)Nc1cccc(-c2ccc(-c3nc4ccccc4[nH]3)cc2)c1 (stereo not given)"
val = -1

[[record]]
compound = "CN(C)CCNC(=O)c1ccc2c(c1)ncn2-c1cc(OCc2ccccc2C(F)(F)F)c(C(N)=O)s1 (tested in a mixture with another compound)"
val = 1

[[record]]
compound = "CC(C)Cn1cc(C2CCN(CCN3CCC(CNC(=O)c4ccc(NC(=O)c5ccc(Cl)cc5)cc4)CC3)CC2)c2ccccc21"
val = -2


Now, please, on to the next compound.
# input Kindly state the measured inhibition obtained for CC(C)(C)n1nnnc1C(c1cccnc1)N(Cc1ccccc1)Cc1ccc(Cl)cc1 (stereo not given) with L-lactate dehydrogenase (Plasmodium falciparum (isolate CDC / Honduras)) (UniProt Q27743).
# output -1

====

- assayNotes: antimalarial activity against Dd2 strain (AID 2302);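 further: 0% = DMSO untreated growth and 100% = chloroquine plus artemisinin killed control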
- conditionDescription: P. falciparum Dd2 in RBCs, LDH growth readout, 72 h; at 2 µM
Active and inactive are the calls of the source.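 Rule for the calls: active = growth inhibition above 50% at the single 2 µM test dose, taken to imply half-maximal potency below 2 µM; inactive = the rest.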
Tick one outcome: active, inactive

[[record]]
compound = "O=C(c1csc(-c2cccnc2)n1)N1CCc2cc3nccc(N4CCN5CCC[C@H]5C4)c3cc21"
cat = "active"

[[record]]
compound = "COc1cc2nc(NCCc3ccccc3)nc(NCc3cc(C)no3)c2cc1OC"
cat = "active"

[[record]]
compound = "CC(C)N1CCC(N(Cc2ccc(-c3ccc(C(F)(F)F)cc3)cc2)C(=O)Cn2c(CCc3cccc(F)c3F)nc(=O)c3cccnc32)CC1"
cat = "active"

[[record]]
compound = "CN1Cc2ccc(NS(=O)(=O)c3ccc(-c4ccoc4)cc3)cc2C1"
cat = "inactive"

[[record]]
compound = "O=C(Nc1ccc(Cl)c(Cl)c1)N(Cc1ccccc1Br)C1CCNCC1"
cat = "inactive"


# input # fetch the recorded call for COc1ccc(Nc2nccc(-c3c(-c4cccc(NC(=O)c5c(F)cccc5F)c4)nn4ccccc34)n2)cc1Cl here
# output active

# input # fetch the recorded call for COc1ccc2[nH]cc(C3CCN(CCCCNC(=O)c4ccc(NC(=O)c5ccc(Cl)cc5)cc4)CC3)c2c1 here
# output inactive

# input # fetch the recorded call for COc1ccc(-c2cccc(NC(=O)c3cccc(C#N)c3)c2)cc1CN1CCN(C)CC1 here
# output inactive

# input # fetch the recorded call for Cc1cc(Cl)ccc1NC(=O)NCCCCCN1CCC(c2c[nH]c3ccccc23)CC1 here
# output inactive

# input # fetch the recorded call for c1ccc2[nH]c(-c3ccc(-c4ccc(CN5CCCCC5)cc4)s3)nc2c1 here
# output active

# input # fetch the recorded call for O=C(Nc1ccc(Cl)c(Cl)c1)Nc1ccccc1N1CCNCC1 here
# output inactive

# input # fetch the recorded call for N#Cc1cnc2cc(-c3cnc(CNCCN4CCOCC4)s3)ccc2c1Nc1ccc(Oc2ccccc2)cc1 here
# output active

# input # fetch the recorded call for O=C1c2ccccc2-n2c1nc1ccccc1c2=O here
# output active

# input # fetch the recorded call for COC(=O)c1ccc2[nH]cc(C3CCN(CCC4CCN(C(=O)/C=C/c5ccc(Cl)c(Cl)c5)CC4)CC3)c2c1 here
# output active

# input # fetch the recorded call for C#CCCC(=O)Nc1cccc(-c2cccc(-c3nc4ccc(C(F)(F)F)cc4[nH]3)c2)c1 here
# output inactive

# input # fetch the recorded call for Cc1sc(C)c(C(F)(F)F)c1CNCCCNc1cc(=O)c2ccccc2[nH]1 here
# output inactive

# input # fetch the recorded call for CC1(C)N=C(N)NC(Nc2ccc(F)c(F)c2)=N1 here
# output inactive

# input # fetch the recorded call for Cc1cc(=O)[nH]c(-n2nc(C)cc2NC(=O)CC(c2ccccc2)c2ccccc2)n1 here
# output active

# input # fetch the recorded call for Cc1ncc([N+](=O)[O-])n1CCOC(=O)NC(NCC1COc2ccccc2O1)C(Cl)(Cl)Cl (centres undefined) here
# output active

# input # fetch the recorded call for CCn1cc(C=C2Oc3c(ccc(O)c3CN3CCCCC3)C2=O)c2ccccc21 here
# output active

# input # fetch the recorded call for O=C(NCc1cccc(C(F)(F)F)c1)[C@@H]1CCCN1C(=O)c1ccc(O)c(-c2ccc(Cl)c(Cl)c2)c1 here
# output active
